Assay: Neuroprotection MTT assay in SHSY5Y cells
Format: cell-based, human
Conditions: insult agent alone; HT22 or SHSY5Y cells, not told apart; 24 h; read-out: cell proliferation (viable cells, MTT)
readoutName: viability

smilesCode: COC(=O)[C@H]1[C@@H](OC(=O)c2ccccc2)C[C@@H]2CC[C@H]1N2C
viability: ~50%

Let us move to another entry and its viability.
Fill in viability for record CN[C@@H](C)Cc1ccccc1 ~50%

src = patent US20260226036A1
